System: MDA-MB-231/ATCC (breast cancer)
Test: NCI 60-cell one-dose antiproliferative screen
Assay type: cell-based, human
Conditions: one dose 10 μM
quantity-kind: GI%

{"chemical-smiles": "Cc1cc(C)n(-c2ccc3nnc(-c4ccccc4)n3n2)n1", "value-observed": "— (— GI% is below 15%)"}
{"chemical-smiles": "COc1ccc(-c2nnc3ccc(NNC(C)=O)nn23)cc1", "value-observed": "— (— GI% is below 15%)"}
{"chemical-smiles": "CN(C)c1ccc(C=NNc2ccc3nnc(-c4ccccc4)n3n2)cc1", "value-observed": "— (— GI% is below 15%)"}

* * *

Tested on: UO-31 (renal cancer)
Assay: NCI 60-cell one-dose antiproliferative screen
Format: cell-based, human
Conditions: one dose 10 μM

{"chemical-smiles": "CC(=O)NNc1ccc2nnc(-c3ccccc3)n2n1", "GI%": "— (— GI% is below 15%)"}
{"chemical-smiles": "O=[N+]([O-])c1ccc(C=NNc2ccc3nnc(-c4ccccc4)n3n2)cc1", "GI%": "— (— GI% is below 15%)"}
{"chemical-smiles": "COc1ccc(-c2nnc3ccc(NNC(C)=O)nn23)cc1", "GI%": "— (— GI% is below 15%)"}
{"chemical-smiles": "COc1ccc(-c2nnc3ccc(NN=Cc4ccccc4)nn23)cc1", "GI%": "— (— GI% is below 15%)"}
{"chemical-smiles": "Cc1cc(C)n(-c2ccc3nnc(-c4ccccc4)n3n2)n1", "GI%": ">100%"}

All values here come from paper PMC11420776.
